MEASURED_ON: T1, interleukin 18 binding protein (IL-18BP) (UniProt O95998 31-194)
T1 sequence (looked up): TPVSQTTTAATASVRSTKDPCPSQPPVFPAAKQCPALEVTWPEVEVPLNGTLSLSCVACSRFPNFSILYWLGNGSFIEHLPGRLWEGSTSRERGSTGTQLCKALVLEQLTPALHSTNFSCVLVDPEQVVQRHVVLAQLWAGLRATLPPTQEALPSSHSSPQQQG
TEST_NAME: cell-based or functional assay
MEASUREMENT_NAME: Ratio (-BP/+BP), DF-10000
Write no unit; give the number alone.

IL-18 variant K53G, S55V, R104Y, H109N (ligand) YFGKLESKLSVIRNLNDQVLFIDQGNRPLFEDMTDSDMRDNAPRTIFIISMYGDVQPRGMAVTISVKSEKISTLSSENKIISFKEMNPPDNIKDTKSDIIFFQYSVPGNDNKMQFESSSYEGYFLASEKERDLFKLILKKEDELGDRSIMFTVQNED : 1.17

Query: Look up Ratio (-BP/+BP), DF-10000: IL-18 variant K53Y, S55G, Q56H (ligand) YFGKLESKLSVIRNLNDQVLFIDQGNRPLFEDMTDSDMRDNAPRTIFIISMYYDGHPRGMAVTISVKSEKISTLSSENKIISFKEMNPPDNIKDTKSDIIFFQRSVPGHDNKMQFESSSYEGYFLASEKERDLFKLILKKEDELGDRSIMFTVQNED
Reply: 0.86
